Just for reference, ChEMBL document CHEMBL3739299 is where these values come from.

- TARGET OR TEST SYSTEM: CAAX prenyl protease 2 (Homo sapiens)
- Sequence (whole entry): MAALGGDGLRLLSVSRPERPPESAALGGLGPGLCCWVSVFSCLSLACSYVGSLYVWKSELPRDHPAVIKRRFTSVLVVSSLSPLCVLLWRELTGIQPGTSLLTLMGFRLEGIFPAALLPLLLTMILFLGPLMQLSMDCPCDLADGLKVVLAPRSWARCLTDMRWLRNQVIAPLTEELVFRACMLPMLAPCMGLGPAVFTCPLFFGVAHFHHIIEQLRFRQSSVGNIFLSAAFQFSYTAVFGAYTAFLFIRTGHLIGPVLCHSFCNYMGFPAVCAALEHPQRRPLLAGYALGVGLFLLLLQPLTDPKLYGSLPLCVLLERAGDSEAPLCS
- PROTOCOL DESCRIPTION: Inhibition of human Rce1-mediated CaaX protease activity using […] and […] as substrate assessed as residual activity at 10 uM measured every 30 to 60 seconds for 60 mins
What Activity was measured for each of the following?
Numbers only, in %.

{"MOLECULE": "Oc1c(C(Nc2ccccc2)c2ccccc2)cc(Cl)c2cccnc12 (centres undefined)", "UOM": "%", "Activity": 68}
{"MOLECULE": "CCOC(=O)c1ccc(NC(c2ccc(Cl)cc2)c2ccc3cccnc3c2O)cc1 (centres undefined)", "UOM": "%", "Activity": 71}
{"MOLECULE": "O=C(O)c1ccc(NC(c2ccc(Br)cc2)c2ccc3cccnc3c2O)cc1 (centres undefined)", "UOM": "%", "Activity": 23}

Provide each entry's Activity from the list below.
1. Oc1c(C(Nc2ccccc2)c2c(F)cc(Br)cc2F)ccc2cccnc12 (centres undefined)
2. Oc1c(C(/N=C/c2ccccc2)c2ccccc2)ccc2cccnc12 (centres undefined)
3. Oc1c(CNc2ccccc2)ccc2cccnc12
4. O=C(Nc1ccccc1)c1ccc(NC(c2ccccc2)c2ccccc2)cc1
5. Oc1c(C(Nc2ccccc2)c2ccccc2)cc(Br)c2ccccc12 (centres undefined)
6. CCCCCCCCOc1ccc(C(Nc2ccccc2)c2ccc3cccnc3c2O)cc1 (centres undefined)
7. Oc1c(C(Nc2ccccc2)c2ccccc2)ccc2cc3ccccc3nc12 (centres undefined)

Solution:
76
73
82
78
27
89
51
